Reported values of MIC for individual entries
Tested on: Aspergillus niger
procedureSummary: Minimum inhibitory concentration required for antifungal activity against Aspergillus niger ATCC 16404
Assay type: functional
measuredQuantity: MIC (µg/mL)

>>> resultvalue("O=C(O)c1ccc(-n2c(=S)[nH]c3c(c2=O)C(c2ccccc2Cl)N(/N=N/c2ccc(Cl)cc2)C(=O)N3)cc1 (centres undefined)")
22
>>> resultvalue("Clc1ccccc1C(c1ccccc1)(c1ccccc1)n1ccnc1 [CLOTRIMAZOLE]")
20
>>> resultvalue("O=C1Nc2[nH]c(=S)n(-c3cccc(Cl)c3)c(=O)c2C(c2ccccc2Cl)N1/N=N/c1ccc(Cl)cc1 (centres undefined)")
14
>>> resultvalue("O=C1Nc2[nH]c(=S)n(-c3cccc(O)c3)c(=O)c2C(c2ccccc2Cl)N1/N=N/c1ccc(Cl)cc1 (centres undefined)")
24
